- Experimental Target: T1, biotinylated CRH (human and mouse, UniProt P01143 145-185 (rat entry), not fully specified; biotin; which end is not stated for the result (NT-biotin and CT-biotin forms were used))
- T1 construct: also called biotin-CRH; CRH (NT biotin)
- T1 peptide: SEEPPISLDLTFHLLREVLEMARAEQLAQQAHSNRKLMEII
- Protocol Summary: ELISA, CRH (CT biotin)
Measure: EC50 (read off the curve)

Recorded results for 2 binders are shown here.
PR303394 (antibody, human IgG1, kappa, V domains shown, also called analog of CTRND05) VH: EVQLQQSGPELVKPGVSMKISCKASGYSFTDSTMNWVKQSHGKNLEWIGLIHPDNGGTIYNQKFKGKATLTVHKSSSTAYMELLSLTSEDSAVYYCANGFAYWGQGTLVTVSA VL: DVVMTQTPLSLPVSLGDQASISCRSSQSLLHSNGNTYLHWYLQKPGQSPELLIYKVSNRFSGVPDRFSGSGSGTDFTLKISRVEAEDLGVYFCSQSTHVPLTFGAGTKLELKR : ~0.03 nM
PR005660 (antibody, human IgG1, kappa, V domains shown) VH: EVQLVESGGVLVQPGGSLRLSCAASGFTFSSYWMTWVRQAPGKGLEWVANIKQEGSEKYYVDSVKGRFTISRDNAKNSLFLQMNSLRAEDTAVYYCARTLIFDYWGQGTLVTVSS VL: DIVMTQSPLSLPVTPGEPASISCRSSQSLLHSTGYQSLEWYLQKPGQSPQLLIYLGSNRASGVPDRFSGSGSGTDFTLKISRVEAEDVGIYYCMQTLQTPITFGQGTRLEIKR : ~0.05 nM

Consider the binder shown here: PR302064 (antibody, human IgG1, kappa, V domains shown) VH: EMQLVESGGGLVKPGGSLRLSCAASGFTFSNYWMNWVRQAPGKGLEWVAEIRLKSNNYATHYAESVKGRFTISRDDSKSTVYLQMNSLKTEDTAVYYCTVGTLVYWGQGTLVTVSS VL: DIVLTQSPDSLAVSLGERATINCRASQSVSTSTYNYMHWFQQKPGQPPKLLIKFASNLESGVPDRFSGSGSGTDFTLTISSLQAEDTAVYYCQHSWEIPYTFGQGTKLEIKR What is its recorded EC50 (read off the curve)?
~0.03 nM
